Data provenance: the supplement of paper PMC10567573

# protocolDetails: protein stability index of a GFP-peptide fusion (GPS, HEK-293T) (PSI 1-6); higher = more stable;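 note: 24-mer peptide tiles fused after GFP, lentivirally expressed, FACS-sorted into six equal bins by GFP/DsRed ratio, decoded by Illumina sequencing, PSI is the read-weighted mean bin number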
# testParameters: treatment: MLN4924 1 uM, 8 h; c terminus: a fixed tail appended
Each entry belongs to exactly one class, chosen by where its protein stability index falls: low value (below 3), medium value (3 to below 4), high value (4 or more)

entrySequence	groupLabel
FPHSGKDCLLCFPETLPESSLFSV [C8orf76]	low value
QLSMLPHLADLVSYSIQKVIGFAK [VDR]	low value
MMDLRNTPAKSLDKFIEDYLLPDT [OAS1]	medium value
TDEFRELRATVERMGLMKANHVFF [FADS1]	low value
RILVGNRLHLAFKRQVPTEQARAY [RAB40C]	low value
NVIETCKEAGVQKLILTSSASVIF [NSDHL]	low value
VNRTTRTNSTPLRAACFDGHLEVV [FEM1A]	low value
CPRIAPADSGRYRASPTRTAPLPM [ELOA2]	medium value
REHRVRRIHVRRHITHDERPHGQQ [KCTD13]	high value
LEQDLQQVMVSGPNLNETSIVSGG [ARFIP2]	high value
MADERKDEAKAPHWTSAPLTEASA [MAP2]	high value
QRELHSHVTNAMVLVNVLQAIYVI [DHCR7]	low value
HRLRVQQAALRAARLRHQELFRLR [NOP53]	low value
DDEEFEYRHVMLPKDIAKLVPKTH [CKS1B]	high value
SEAPNEKLFFVDTGSKEKGLTKKR [NOP53]	high value
TFQSHEPEFDYLKSLEIEEKINKI [PPP2R2C]	high value
QKGLGGAMVWALDLDDFAGFSCNQ [CHIT1]	low value
LYFHHYFPAMLFSSMLTGILWDTL [POMT2]	medium value
TRAADLLVNPLDPRNADKIRVKIA [SRPK2]	medium value
LTVEGFQSWMWRGLTFLLPFLFFG [TMEM120A]	low value
LHPDRDPGNPSLHSRFVELSEAYR [DNAJC4]	medium value
GIMCLKRLNYDRKELEKRREESQH [PPFIA4]	medium value
DKNTLKDHMRKKQHRKINPKNREY [ZNF277]	medium value
RFGDRMFYKDWWNSTSYSNYYRTW [SOAT1]	low value
ASVLLQAVLYPRFMGTISDVKTNV [CD207]	low value
FNIAGTVVKYRRPMDVYETGIEYI [ADAMTSL2]	low value
REFDVRQTPQVNINPFTPDSLLLH [WEE1]	medium value
